- assay-overview: Measurement of Log P values by HPLC on reversed phase columns (EEC directive 79/831 Annex V.A8)
- Type: physicochemical
- run-conditions: reversed phase HPLC column, method [a]: LC-UV, acidic range, 0.1% formic acid in water and acetonitrile as eluent
Provide the recorded chromatographic logP for the entries that follow.

Cc1ccc(C(F)(F)CNC(=O)c2c(Oc3cccc(C4CC4)c3)cnc3ccccc23)c(C)c1	4.59

Provide the reported chromatographic logP of each entry below, same order.
1. O=C(O)c1c(Oc2cccc(Cl)c2F)nnc2c1CCC2
2. Cc1ccc(CCNC(=O)c2c(Oc3cccc(C(F)(F)F)c3)nnc3cc(F)ccc23)c(C)c1
3. COc1cc([C@@H](F)CNC(=O)c2c(Oc3cccc(Cl)c3)nnc3ccccc23)ccc1Cl (racemic)

1: 1.53; 2: 4.4; 3: 3.77

Provide the reported chromatographic logP of each entry below, same order.
1. Cc1ccc(C(F)(F)CNC(=O)c2c(Oc3cccc(Cl)c3)cnc3nccnc23)c(C)c1
2. Cc1cc(Br)ccc1C(F)(F)CNC(=O)c1c(Oc2cccc(Cl)c2F)nnc2c1CCC2
3. Cc1cccc(Oc2nnc3ccccc3c2C(=O)NCC(F)(F)c2ccc(C)cc2C)c1
4. C[C@H](NC(=O)c1c(Oc2cccc(Cl)c2)nnc2ccccc12)c1cccc(C(F)(F)F)c1 (racemic)
5. O=C(O)c1c(Oc2cccc(C3CC3)c2)cnc2ccccc12
6. Cc1scc(CCNC(=O)c2c(Oc3cccc(C(F)(F)F)c3)nnc3ccccc23)c1C
7. O=C(NC[C@H](F)c1ccc(Cl)cc1Cl)c1c(Oc2cccc(C(F)(F)F)c2)nnc2ccccc12 (racemic)
8. Cc1ccc(CCNC(=O)c2c(Oc3cccc(C(F)(F)F)c3)cnc3c2CCC3)c(C)c1

[3.37, 4.11, 4.11, 3.9, 2.59, 4.11, 4.55, 4.23]

----------
- System: Colletotrichum lindemuthianum
- assay-overview: B-8. Colletotrichum lindemuthianum in vitro cell test
- Type: cell-based
- run-conditions: 144 h, 20 ppm of active ingredient, 6 days incubation, liquid culture, absorbance, read-out: efficacy (inhibition of fungal growth)
quantity-kind: inhibition at 20 ppm

CCc1cccc2c1OCC[C@@H]2NC(=O)c1c(Oc2cccc(C(F)(F)F)c2)nnc2ccccc12 (racemic)	90 to 100%
O=C(N[C@H]1CCSc2ccc(F)cc21)c1c(Oc2cccc(C(F)(F)F)c2)nnc2ccccc12 (racemic)	80 to 89%
O=C(NCC(F)(F)c1ccc(Br)cc1Cl)c1c(Oc2cccc(C3CC3)c2F)nnc2c1CCCC2	90 to 100%

Kindly review the next molecule as well.
Report inhibition at 20 ppm for O=C(NCC(F)c1ccc(Cl)cc1Cl)c1c(Oc2cccc(C(F)(F)F)c2)nnc2c1OCCO2 (racemic) please. 80 to 89%

----------
- System: Colletotrichum lindemuthianum
- assay-overview: B-8. Colletotrichum lindemuthianum in vitro cell test
- Assay type: cell-based
- run-conditions: 144 h, 20 ppm of active ingredient, 6 days incubation, liquid culture, absorbance, read-out: efficacy (inhibition of fungal growth)
quantity-kind: inhibition at 20 ppm

Cc1ccc(C(F)(F)CNC(=S)c2c(Oc3cccc(Cl)c3)nnc3ccccc23)c(C)c1 [I-158]	90 to 100%

Provide the reported inhibition at 20 ppm of each entry below, same order.
1. Cc1ccc2c(C(=O)NCC(F)(F)c3ccc(C)c(C)c3)c(Oc3cccc(C(F)(F)F)c3)nnc2c1 [I-246]
2. O=C(N[C@H]1CCOc2ccccc21)c1c(Oc2cccc(C(F)(F)F)c2)nnc2ccccc12 [I-172]
3. O=C(NC[C@H](F)c1ccc(C2CC2)cc1Cl)c1c(Oc2cccc(C(F)(F)F)c2)cnc2ccccc12 (racemic) [I-062]
4. CC(=O)c1ccc(C(F)(F)CNC(=O)c2c(Oc3cccc(C(F)(F)F)c3)nnc3ccccc23)c(Cl)c1 [I-069]
5. O=C(N[C@H]1CCCc2cc(Br)ccc21)c1c(Oc2cccc(C(F)(F)F)c2)cnc2c1OCCO2 (racemic) [I-111]

1: 90 to 100%; 2: 90 to 100%; 3: 90 to 100%; 4: 70 to 79%; 5: 90 to 100%

----------
- assay-overview: Measurement of Log P values by HPLC on reversed phase columns (EEC directive 79/831 Annex V.A8)
- Format: physicochemical
- run-conditions: reversed phase HPLC column, method [a]: LC-UV, acidic range, 0.1% formic acid in water and acetonitrile as eluent
Provide the recorded chromatographic logP for the entries that follow.
Give bare numbers.

Example entries and their recorded answers appear below.
O=C(NCCc1ncc(Cl)cn1)c1c(Oc2cccc(C(F)(F)F)c2)nnc2ccccc12	2.91
Cc1cc(Br)ccc1[C@@H](F)CNC(=O)c1c(Oc2cccc(C(F)(F)F)c2)cnc2ccccc12 (racemic)	4.59
Cc1cc(Br)ccc1[C@@H](F)CNC(=O)c1c(Oc2cccc(Cl)c2)nnc2ccccc12 (racemic)	4.33

Kindly review the next molecule as well.
Report chromatographic logP for `COc1ccc2c(C(=O)NCCc3ccc(C)cc3C)c(Oc3cccc(C(F)(F)F)c3)nnc2c1` please. 4.3

----------
- Tested on: Alternaria alternata
- assay-overview: Alternaria alternata in vitro cell test
- Assay type: cell-based
- run-conditions: 120 h, 20 ppm of active ingredient, liquid culture, 5 days incubation, spectrometric measurement of mycelium growth, read-out: efficacy (inhibition of fungal growth)
quantity-kind: inhibition at 20 ppm

Cc1ccc(C(F)(F)CNC(=O)c2c(Oc3cccc(C(F)(F)F)c3)nnc3c2COCC3)c(C)c1	90 to 100%
Cc1ccc(CCNC(=O)c2c(Oc3cccc(C4CC4)c3F)nnc3ccccc23)c(C)c1	90 to 100%

Provide the reported inhibition at 20 ppm of each entry below, same order.
1. O=C(NCC(F)(F)c1ccc(Cl)cc1Cl)c1c(Oc2cccc(Cl)c2)nnc2c1CCCC2
2. Cc1cccc(Oc2nnc3ccccc3c2C(=O)N[C@@H](C)c2cccc(C(F)(F)F)c2)c1 (racemic)

1: 90 to 100%; 2: 80 to 89%

----------
- Tested on: Alternaria alternata
- assay-overview: Alternaria alternata in vitro cell test
- Type: cell-based
- run-conditions: 120 h, 20 ppm of active ingredient, liquid culture, 5 days incubation, spectrometric measurement of mycelium growth, read-out: efficacy (inhibition of fungal growth)
quantity-kind: inhibition at 20 ppm

Example entries and their recorded answers appear below.
O=C(NCC(F)(F)c1ccc(Br)cc1Cl)c1c(Oc2cccc(C(F)F)c2)nnc2c1CCCC2 [I-208]	90 to 100%
O=C(NCC(F)(F)c1ccc(Cl)cc1Cl)c1c(Oc2cccc(C3CC3)c2F)nnc2c1CCCC2 [I-196]	90 to 100%

Provide the reported inhibition at 20 ppm of each entry below, same order.
1. O=C(NCC(F)(F)c1ccc(Cl)cc1)c1c(Oc2cccc(C(F)(F)F)c2)nnc2ccccc12 [I-023]
2. Cc1ccc2c(C(=O)N[C@H]3CCCc4cc(Br)ccc43)c(Oc3cccc(C(F)(F)F)c3)nnc2c1 (racemic) [I-181]

90 to 100%
80 to 89%

----------
Provide the recorded chromatographic logP for the entries that follow.
- assay-overview: Measurement of Log P values by HPLC on reversed phase columns (EEC directive 79/831 Annex V.A8)
- Assay type: physicochemical
- run-conditions: reversed phase HPLC column, method [a]: LC-UV, acidic range, 0.1% formic acid in water and acetonitrile as eluent

Cc1ccc([C@H](C)NC(=O)c2c(Oc3cccc(C(F)(F)F)c3)nnc3c2OCCO3)cc1 (racemic) [I-102]	3.02
O=C(NCC(F)(F)c1ccc(Cl)cc1Cl)c1c(Oc2cccc(C(F)(F)F)c2)nnc2c1COCC2 [I-228]	3.85
Cc1ccc(CCNC(=O)c2c(Oc3cccc(C(F)(F)F)c3)nnc3ccsc23)c(C)c1 [I-231]	4.77

Provide the reported chromatographic logP of each entry below, same order.
1. Cc1ccc(CCNC(=O)c2c(Oc3cccc(C(F)(F)F)c3)nnc3ccc(F)cc23)c(C)c1 [I-006]
2. CCc1cccc2c1OCC[C@@H]2NC(=O)c1c(Oc2cccc(C(F)(F)F)c2)nnc2ccccc12 (racemic) [I-168]
3. Cc1ccc(C(F)(F)F)cc1Oc1nnc2ccccc2c1C(=O)NC[C@H](F)c1ccc(Cl)cc1Cl (racemic) [I-183]

4.46
4.45
4.74

----------
- assay-overview: Measurement of Log P values by HPLC on reversed phase columns (EEC directive 79/831 Annex V.A8)
- Assay type: physicochemical
- run-conditions: reversed phase HPLC column, method [a]: LC-UV, acidic range, 0.1% formic acid in water and acetonitrile as eluent
quantity-kind: chromatographic logP
Give bare numbers.

Provide the reported chromatographic logP of each entry below, same order.
1. O=C(NC[C@H](F)c1ccc(Br)cc1Cl)c1c(Oc2cccc(C(F)F)c2)nnc2ccccc12 (racemic)
2. O=C(NCCOc1ccc(C(F)(F)F)cc1Cl)c1c(Oc2cccc(C(F)(F)F)c2)nnc2ccccc12
3. O=C(NCC(F)(F)c1cc(Cl)sc1Cl)c1c(Oc2cccc(C(F)(F)F)c2)nnc2ccccc12

4.01
4.33
4.68

----------
- assay-overview: Measurement of Log P values by HPLC on reversed phase columns (EEC directive 79/831 Annex V.A8)
- Format: physicochemical
- run-conditions: reversed phase HPLC column, method [a]: LC-UV, acidic range, 0.1% formic acid in water and acetonitrile as eluent
quantity-kind: chromatographic logP
Numbers only.

O=C(NCC(F)(F)c1ccc(Br)cc1Cl)c1c(Oc2cccc(Cl)c2)nnc2c1CCCC2	4.11
O=C(N[C@H]1CCCc2sc(C3CC3)nc21)c1c(Oc2cccc(C(F)(F)F)c2)nnc2ccccc12 (racemic)	3.92
Cc1ccc(C(F)(F)CNC(=O)c2c(Oc3cccc(C4CC4)c3F)nnc3c2CCC3)c(Cl)c1	4.05
O=C(NCC(F)c1ccc(Cl)cc1Cl)c1c(Oc2cccc(C(F)(F)F)c2)nnc2c1CCC2 (centres unmarked)	4

Report chromatographic logP for `O=C(NCC(F)(F)c1ccc(Cl)cc1Cl)c1c(Oc2cccc(C(F)(F)F)c2)nnc2c1CCC2` please. 4.05
